- System Under Test: hTSHR (Homo sapiens)
- Construct: expressed in transfected cells
- Assay Remarks: hTSHR TR-FRET cAMP Assay (inhibition of M22-stimulated cAMP production)
- Type: cell-based
- Test Settings: Expi293F Inducible cells stably expressing hTSHR; cAMP HTRF; stimulated with EC80 of anti-TSHR antibody M22; 15 min compound preincubation, 30 min at 37° C.; read-out: Activity (IC50 bins)
pIC50: −log10 of the molar value.
pIC50 values for the compounds below.

Some compounds with recorded pIC50:
> print(dat)
                                   compound    test.value
1  C[C@H]1Oc2cc(NC(=O)NC(C)(C)C)ccc2N(Cc2cc(Cl)ccc2Cl)C1=O        > 7.00
2  CC1Oc2cc(NC(=O)NC(C)(C)C)ccc2N(Cc2cccc(Cl)c2)C1=O (stereo in doubt) [Example 44]        > 7.00
3  CC(C)(C)NC(=O)Nc1ccc2c(c1)OCC(=O)N2Cc1cccc(C2CC2)c1  6.00 to 7.00

Entry C[C@@H](c1cccc(OC(F)(F)F)c1)n1c(=O)cnc2cc(NC(=O)NC3(C)CC(F)(F)C3)ccc21 , pIC50 reported as 6.00 to 7.00

Entry Cc1nc2cc(NC(=O)NC(C)(C)C)ccc2n(Cc2cccc(Cl)c2)c1=O , pIC50 reported as 6.00 to 7.00

---

- System Under Test: hTSHR (Homo sapiens, UniProt P16473)
- Construct: expressed in transfected cells
- Sequence (P16473 21-764): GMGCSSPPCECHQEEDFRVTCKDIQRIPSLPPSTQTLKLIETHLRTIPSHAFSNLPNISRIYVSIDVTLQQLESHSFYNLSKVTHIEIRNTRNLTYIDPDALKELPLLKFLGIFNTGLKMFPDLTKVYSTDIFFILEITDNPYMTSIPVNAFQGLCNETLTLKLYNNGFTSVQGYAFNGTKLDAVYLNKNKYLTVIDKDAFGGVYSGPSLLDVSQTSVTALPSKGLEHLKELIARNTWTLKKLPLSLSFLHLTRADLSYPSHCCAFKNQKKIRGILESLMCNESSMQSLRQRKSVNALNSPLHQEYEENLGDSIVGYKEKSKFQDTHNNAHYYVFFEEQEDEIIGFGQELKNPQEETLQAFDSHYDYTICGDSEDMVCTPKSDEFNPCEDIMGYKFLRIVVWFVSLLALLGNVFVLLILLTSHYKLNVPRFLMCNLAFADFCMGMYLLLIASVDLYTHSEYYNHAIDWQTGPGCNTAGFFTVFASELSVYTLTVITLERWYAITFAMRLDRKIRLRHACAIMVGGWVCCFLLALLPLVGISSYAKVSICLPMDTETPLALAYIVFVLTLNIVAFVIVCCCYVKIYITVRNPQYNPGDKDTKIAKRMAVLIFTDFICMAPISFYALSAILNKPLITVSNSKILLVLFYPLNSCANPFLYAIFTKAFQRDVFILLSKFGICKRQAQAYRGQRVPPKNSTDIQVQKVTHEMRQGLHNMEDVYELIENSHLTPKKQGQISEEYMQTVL
- Assay Remarks: hTSHR TR-FRET cAMP Assay (inhibition of M22-stimulated cAMP production)
- Type: cell-based
- Test Settings: Expi293F Inducible cells stably expressing hTSHR; cAMP HTRF; stimulated with EC80 of anti-TSHR antibody M22; 15 min compound preincubation, 30 min at 37° C.; read-out: Activity (IC50 bins)
pIC50: −log10 of the molar value.
Measured Quantity: pIC50

> print(dat)
                                   compound                     system.under.test  measured.quantity    test.value
1  CCc1nc2cc(NC(=O)NC(C)(C)C)ccc2n(Cc2cccc(OC(F)(F)F)c2)c1=O  hTSHR (Homo sapiens, UniProt P16473)              pIC50        < 6.00
2  C[C@@H](c1ccccc1F)N1C(=O)CCc2cc(NC(=O)NC(C)(C)C)ccc21  hTSHR (Homo sapiens, UniProt P16473)              pIC50        > 7.00
3  CC(C)(C)NC(=O)Nc1ccc2c(c1)OC(C)(C)C(=O)N2Cc1ccccc1  hTSHR (Homo sapiens, UniProt P16473)              pIC50        < 6.00
4  C[C@@H](c1cccc(Cl)c1)n1c(=O)cnc2cc(NC(=O)NC(C)(C)C)c(C#N)cc21  hTSHR (Homo sapiens, UniProt P16473)              pIC50  6.00 to 7.00
5  C[C@@H](c1cccc(CCCC(F)(F)F)c1)n1c(=O)cnc2cc(NC(=O)NC(C)(C)C)ccc21  hTSHR (Homo sapiens, UniProt P16473)              pIC50  6.00 to 7.00
6  COC[C@H]1Oc2cc(NC(=O)NC(C)(C)C)ccc2N(Cc2ccccc2)C1=O  hTSHR (Homo sapiens, UniProt P16473)              pIC50        < 6.00

Entry C[C@@H]1Oc2cc(NC(=O)NC(C)(C)C)ccc2N(Cc2cc(Cl)ccc2C#N)C1=O , pIC50 reported as < 6.00

Entry C[C@@H](c1cc(Cl)cc(Cl)c1)n1c(=O)cnc2cc(NC(=O)NC(C)(C)C)ccc21 , pIC50 reported as 6.00 to 7.00

Entry C[C@@H](c1cccc(OC(F)(F)F)c1)n1c(=O)cnc2c(F)c(NC(=O)NC(C)(C)C)ccc21 , pIC50 reported as 6.00 to 7.00

Entry C[C@H]1Oc2cc(NC(=O)NC(C)(C)[C@H]3C[C@@H](O)C3)ccc2N(Cc2ccccc2)C1=O , pIC50 reported as < 6.00

Entry C[C@@H]1Oc2cc(NC(=O)NC(C)(C)C)ccc2N(Cc2cc(C(F)(F)F)ccc2C#N)C1=O , pIC50 reported as 6.00 to 7.00

Entry Cn1ccc(CN2C(=O)CCc3cc(NC(=O)NC(C)(C)C)ccc32)n1 , pIC50 reported as < 6.00

Entry CC(c1cccc(C(F)(F)F)c1)N1C(=O)N(C)Cc2cc(NC(=O)NC(C)(C)C)ccc21 (stereo not shown) , pIC50 reported as < 6.00

Entry C[C@@H](c1cc(Cl)ccc1F)n1c(=O)cnc2cc(NC(=O)NC(C)(C)C)c(Cl)cc21 , pIC50 reported as > 7.00

Entry C[C@H]1Oc2cc(NC(=O)NC(C)(C)C)c(C#N)cc2N([C@@H](C)c2ccccc2)C1=O , pIC50 reported as > 7.00

Entry C[C@@H](c1cccc(OC(F)(F)F)c1)n1c(=O)cnc2cc(NC(=O)N[C@H]3C[C@@H](C(F)(F)F)C3)ccc21 , pIC50 reported as 6.00 to 7.00

---

- System Under Test: hTSHR (Homo sapiens, UniProt P16473)
- Construct: expressed in transfected cells
- Assay Remarks: hTSHR TR-FRET cAMP Assay (inhibition of M22-stimulated cAMP production)
- Format: cell-based
- Test Settings: Expi293F Inducible cells stably expressing hTSHR; cAMP HTRF; stimulated with EC80 of anti-TSHR antibody M22; 15 min compound preincubation, 30 min at 37° C.; read-out: Activity (IC50 bins)
IC50 values for the compounds below.

> print(dat)
                                   compound  measured.quantity      test.value
1  C[C@@H](c1cc(Cl)ccc1Cl)n1c(=O)cnc2cc(NC(=O)NC(C)(C)C)c(Cl)cc21 [Example 365]               IC50        < 100 nM
2  Cc1nc2cc(NC(=O)NC(C)(C)C)ccc2n([C@@H](C)c2cccc(Cl)c2)c1=O [Example 180]               IC50  100 to 1000 nM
3  C[C@@H](c1cc(OC(F)(F)F)c(F)cc1F)n1c(=O)cnc2cc(NC(=O)NC(C)(C)C)ccc21 [Example 151]               IC50  100 to 1000 nM
4  C[C@H]1Oc2cc(NC(=O)OC3CCCC3)ccc2N([C@@H](C)c2ccccc2)C1=O [Example 303]               IC50        < 100 nM
5  C[C@H]1Oc2cc(NC(=O)NC3(C)CCOCC3)ccc2N([C@@H](C)c2ccccc2)C1=O [Example 265]               IC50  100 to 1000 nM

Entry C[C@H]1Oc2cc(NC(=O)NC3(C(F)(F)F)COC3)ccc2N([C@@H](C)c2ccccc2)C1=O [Example 263] , IC50 reported as 100 to 1000 nM

Entry C[C@@H](c1cccc(Oc2ccccc2)c1)n1c(=O)cnc2cc(NC(=O)NC(C)(C)C)ccc21 [Example 114] , IC50 reported as 100 to 1000 nM

---

- System Under Test: hTSHR (Homo sapiens, UniProt P16473)
- Construct: expressed in transfected cells
- Assay Remarks: hTSHR TR-FRET cAMP Assay (inhibition of M22-stimulated cAMP production)
- Format: cell-based
- Test Settings: Expi293F Inducible cells stably expressing hTSHR; cAMP HTRF; stimulated with EC80 of anti-TSHR antibody M22; 15 min compound preincubation, 30 min at 37° C.; read-out: Activity (IC50 bins)
- Protocol: Assays were performed using Expi293F Inducible cells (Invitrogen) stably expressing hTSHR via a pcZeo TetO DNA plasmid. […] Assay-ready aliquots were prepared by harvesting each cell type separately 24-hours post-induction. Cells were pelleted at 4° C., resuspended in Expi293 Expression media+10% DMSO, aliquoted, and kept frozen at −80° C. until ready for use. […]
pIC50: −log10 of the molar value.
Measured Quantity: pIC50

Some compounds with recorded pIC50:
> print(dat)
                                   compound  measured.quantity    test.value
1  CC(C)(C)NC(=O)Nc1ccc2c(c1)nc(N)c(=O)n2Cc1ccccc1              pIC50        < 6.00
2  C[C@@H](c1cccc(OC(F)(F)F)c1)n1c(=O)cnc2cc(NC(=O)N[C@H]3C[C@H](C(F)(F)F)C3)ccc21              pIC50  6.00 to 7.00

Bench note, hTSHR (Homo sapiens, UniProt P16473): entry CC(C)(C)NC(=O)Nc1ccc2c(c1)CCC(=O)N2C(CO)c1ccccc1 (stereo not shown) , its pIC50 = < 6.00

Bench note, hTSHR (Homo sapiens, UniProt P16473): entry C[C@H]1Oc2cc(NC(=O)NC(C)(C)C)ccc2N(Cc2ccnc(C(F)(F)F)n2)C1=O , its pIC50 = 6.00 to 7.00

Where these numbers come from: patent US20260365628A1
